System: TIP60-KAT5 (Homo sapiens)
Construct: encoding amino acid residues 2 to 461 (Uniprot Q92993-2) of human KAT5 isoform; made in house; host or cells: E. coli BL21 DE3
Assay: Acetyltransferase biochemical assay (AlphaScreen), KAT5
Run Parameters: Table 1 (TIP60-KAT5); 0.4 μM Acetyl coenzyme A, histone H4, 10 nM enzyme
pIC50: −log10 of the molar value.
Measured Attribute: pIC50

Here are 5 compounds together with their reported answers.
Compound: COc1ccccc1C(O)CNC(=O)C1=Nc2ccc(I)cc2S(=O)(=O)N1 (single isomer, unassigned) [Example 150]
pIC50: 5.50
//
Compound: CNC(=O)C(CNC(=O)C1=Nc2ccccc2S(=O)(=O)N1)c1ccccc1 (stereo not drawn)
pIC50: 3.96
//
Compound: O=C(NCC(O)c1ccccc1)C1=Nc2ccc(Br)cc2S(=O)(=O)N1 (stereo not drawn)
pIC50: 5.11
//
Compound: O=C(NCC(c1ccccc1)c1ncco1)C1=Nc2ccc(O)cc2S(=O)(=O)N1 (stereo not drawn) [Example 8]
pIC50: 5.36
//
Compound: O=C(NCCc1ccccc1OC(F)(F)F)C1=Nc2ccc(Br)cc2S(=O)(=O)N1
pIC50: 6.02

I = CCOC(=O)C(CNC(=O)C1=Nc2ccccc2S(=O)(=O)N1)c1ccccc1 (stereo not drawn)
II = CC(CNC(=O)C1=Nc2ccccc2S(=O)(=O)N1)(c1ccccc1)c1ccccc1
III = O=C(NCC(c1ccccc1)c1ccccc1)C1=Nc2ccc(Br)cc2S(=O)(=O)N1
IV = O=C(NCC(O)c1ccccc1C(F)(F)F)C1=Nc2ccc(I)cc2S(=O)(=O)N1 (stereo not drawn)
V = O=C(NCCc1ccccc1-c1ncco1)C1=Nc2ccc(I)cc2S(=O)(=O)N1
Sort by pIC50, descending. Provide the labels, sequenced as the question asks.
V, III, IV, I, II
(V: 6.14, III: 5.85, IV: 5.29, I: 5.00, II: 4.43)

---

System: TIP60-KAT5 (Homo sapiens, UniProt Q92993)
Construct: encoding amino acid residues 2 to 461 (Uniprot Q92993-2) of human KAT5 isoform; made in house; host or cells: E. coli BL21 DE3
Sequence (Q92993 2-461 isoform Q92993-2): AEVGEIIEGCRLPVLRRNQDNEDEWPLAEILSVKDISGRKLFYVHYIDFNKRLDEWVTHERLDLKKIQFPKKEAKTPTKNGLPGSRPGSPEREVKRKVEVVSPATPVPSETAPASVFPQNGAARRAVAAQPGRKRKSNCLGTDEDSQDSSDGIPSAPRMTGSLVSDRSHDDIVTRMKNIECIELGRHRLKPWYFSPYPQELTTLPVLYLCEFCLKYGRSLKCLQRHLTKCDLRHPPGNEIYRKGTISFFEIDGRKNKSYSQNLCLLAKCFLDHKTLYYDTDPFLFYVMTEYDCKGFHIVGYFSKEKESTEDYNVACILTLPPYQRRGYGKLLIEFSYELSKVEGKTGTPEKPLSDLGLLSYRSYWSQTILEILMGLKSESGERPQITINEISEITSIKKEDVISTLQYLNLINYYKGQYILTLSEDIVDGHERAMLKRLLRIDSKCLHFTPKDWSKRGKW
Assay: Acetyltransferase biochemical assay (AlphaScreen), KAT5
Run Parameters: Table 1 (TIP60-KAT5); 0.4 μM Acetyl coenzyme A, histone H4, 10 nM enzyme
Measured Attribute: IC50 (µM)

Molecule: O=C(NCC(c1ccccc1)c1ccccc1)C1=Nc2ccccc2S(=O)(=O)N1
IC50 (µM): 14.5
//
Molecule: O=C(NCC(c1ccccc1)c1ncco1)C1=Nc2ccc(C(F)(F)F)cc2S(=O)(=O)N1 (stereo not drawn)
IC50 (µM): 1.24
//
Molecule: O=C(NCC(c1ccccc1)c1ncco1)C1=Nc2ccc(I)cc2S(=O)(=O)N1 (single isomer, unassigned) [Example 147]
IC50 (µM): 0.445
//
Molecule: COc1cccc(C(O)CNC(=O)C2=Nc3ccc(I)cc3S(=O)(=O)N2)c1 (stereo not drawn)
IC50 (µM): 40.8

P = O=C(NCCc1ccccc1I)C1=Nc2ccccc2S(=O)(=O)N1
Q = CS(=O)(=O)Nc1ccc2c(c1)S(=O)(=O)NC(C(=O)NCC(c1ccccc1)c1ncco1)=N2 (stereo not drawn)
# return whichever of P and Q has the smaller IC50 // respond with label for picked entry
P

---

System: MOZ-KAT6A (Homo sapiens, UniProt Q92794, A567V)
Construct: encoding amino acid residues 507 to 778 (Uniprot Q92794-1) of human KAT6A; made in house; host or cells: E. coli BL21 DE3
Sequence (Q92794 507-778 A567V limits assumed): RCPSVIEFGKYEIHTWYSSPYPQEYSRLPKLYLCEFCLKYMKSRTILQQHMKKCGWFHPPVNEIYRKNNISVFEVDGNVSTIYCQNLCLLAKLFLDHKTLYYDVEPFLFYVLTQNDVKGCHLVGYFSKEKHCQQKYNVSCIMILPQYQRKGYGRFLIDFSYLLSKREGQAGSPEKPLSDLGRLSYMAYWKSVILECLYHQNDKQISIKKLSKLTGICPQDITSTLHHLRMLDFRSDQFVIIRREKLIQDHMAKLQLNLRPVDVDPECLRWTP
Assay: Acetyltransferase biochemical assay (AlphaScreen), KAT6A
Run Parameters: Table 2 (MOZ-KAT6A); 10 μM Acetyl coenzyme A, histone H3.1, 5 nM enzyme
pIC50: −log10 of the molar value.
Measured Attribute: pIC50

Compound: COC(=O)c1ccc2c(c1)S(=O)(=O)NC(C(=O)NCC(c1ccccc1)c1ncco1)=N2 (stereo not drawn) [Example 23]
pIC50: 7.25

1 = O=C(NCC(O)c1ccccc1)C1=Nc2ccc(I)cc2S(=O)(=O)N1 (stereo not drawn) [Example 87]
2 = O=C(NCCc1ccccc1O)C1=Nc2ccccc2S(=O)(=O)N1 [Example 29]
Field: lower pIC50 | Options: 1 / 2 Your answer should be the label attached to the chosen record.
2

---

System: MOF-KAT8 (Homo sapiens, UniProt Q9H7Z6)
Sequence (Q9H7Z6 177-447): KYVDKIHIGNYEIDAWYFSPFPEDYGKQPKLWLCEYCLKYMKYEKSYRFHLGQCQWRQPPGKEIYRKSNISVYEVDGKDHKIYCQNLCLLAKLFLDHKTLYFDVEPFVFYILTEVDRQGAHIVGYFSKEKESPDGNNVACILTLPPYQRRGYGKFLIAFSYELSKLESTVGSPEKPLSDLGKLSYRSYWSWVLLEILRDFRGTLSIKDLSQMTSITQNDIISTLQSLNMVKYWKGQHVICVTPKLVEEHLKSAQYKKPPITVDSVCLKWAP
Assay: Acetyltransferase biochemical assay (AlphaScreen), KAT8
Run Parameters: Table 4 (MOF-KAT8); 0.4 μM Acetyl coenzyme A, histone H4, 20 nM enzyme
This listing pairs compounds with measured IC50.

Solved entries (count: 2):
Compound: O=C(NCC(c1ncco1)c1ccccc1I)C1=Nc2ccccc2S(=O)(=O)N1 (stereo not drawn)
Test Result: > 125 µM
--
Compound: O=C(NCCC1CCCCC1)C1=Nc2ccc(I)cc2S(=O)(=O)N1
Test Result: > 125 µM

Attention now shifts to the item below.
Need IC50, item COC(=O)c1ccccc1C(CNC(=O)C1=Nc2ccccc2S(=O)(=O)N1)c1ncco1 (stereo not drawn)
> 125 µM

---

System: QKF-KAT6B (Homo sapiens, UniProt Q8WYB5)
Construct: purchased SignalChem K315-381BG
Sequence (Q8WYB5 whole entry): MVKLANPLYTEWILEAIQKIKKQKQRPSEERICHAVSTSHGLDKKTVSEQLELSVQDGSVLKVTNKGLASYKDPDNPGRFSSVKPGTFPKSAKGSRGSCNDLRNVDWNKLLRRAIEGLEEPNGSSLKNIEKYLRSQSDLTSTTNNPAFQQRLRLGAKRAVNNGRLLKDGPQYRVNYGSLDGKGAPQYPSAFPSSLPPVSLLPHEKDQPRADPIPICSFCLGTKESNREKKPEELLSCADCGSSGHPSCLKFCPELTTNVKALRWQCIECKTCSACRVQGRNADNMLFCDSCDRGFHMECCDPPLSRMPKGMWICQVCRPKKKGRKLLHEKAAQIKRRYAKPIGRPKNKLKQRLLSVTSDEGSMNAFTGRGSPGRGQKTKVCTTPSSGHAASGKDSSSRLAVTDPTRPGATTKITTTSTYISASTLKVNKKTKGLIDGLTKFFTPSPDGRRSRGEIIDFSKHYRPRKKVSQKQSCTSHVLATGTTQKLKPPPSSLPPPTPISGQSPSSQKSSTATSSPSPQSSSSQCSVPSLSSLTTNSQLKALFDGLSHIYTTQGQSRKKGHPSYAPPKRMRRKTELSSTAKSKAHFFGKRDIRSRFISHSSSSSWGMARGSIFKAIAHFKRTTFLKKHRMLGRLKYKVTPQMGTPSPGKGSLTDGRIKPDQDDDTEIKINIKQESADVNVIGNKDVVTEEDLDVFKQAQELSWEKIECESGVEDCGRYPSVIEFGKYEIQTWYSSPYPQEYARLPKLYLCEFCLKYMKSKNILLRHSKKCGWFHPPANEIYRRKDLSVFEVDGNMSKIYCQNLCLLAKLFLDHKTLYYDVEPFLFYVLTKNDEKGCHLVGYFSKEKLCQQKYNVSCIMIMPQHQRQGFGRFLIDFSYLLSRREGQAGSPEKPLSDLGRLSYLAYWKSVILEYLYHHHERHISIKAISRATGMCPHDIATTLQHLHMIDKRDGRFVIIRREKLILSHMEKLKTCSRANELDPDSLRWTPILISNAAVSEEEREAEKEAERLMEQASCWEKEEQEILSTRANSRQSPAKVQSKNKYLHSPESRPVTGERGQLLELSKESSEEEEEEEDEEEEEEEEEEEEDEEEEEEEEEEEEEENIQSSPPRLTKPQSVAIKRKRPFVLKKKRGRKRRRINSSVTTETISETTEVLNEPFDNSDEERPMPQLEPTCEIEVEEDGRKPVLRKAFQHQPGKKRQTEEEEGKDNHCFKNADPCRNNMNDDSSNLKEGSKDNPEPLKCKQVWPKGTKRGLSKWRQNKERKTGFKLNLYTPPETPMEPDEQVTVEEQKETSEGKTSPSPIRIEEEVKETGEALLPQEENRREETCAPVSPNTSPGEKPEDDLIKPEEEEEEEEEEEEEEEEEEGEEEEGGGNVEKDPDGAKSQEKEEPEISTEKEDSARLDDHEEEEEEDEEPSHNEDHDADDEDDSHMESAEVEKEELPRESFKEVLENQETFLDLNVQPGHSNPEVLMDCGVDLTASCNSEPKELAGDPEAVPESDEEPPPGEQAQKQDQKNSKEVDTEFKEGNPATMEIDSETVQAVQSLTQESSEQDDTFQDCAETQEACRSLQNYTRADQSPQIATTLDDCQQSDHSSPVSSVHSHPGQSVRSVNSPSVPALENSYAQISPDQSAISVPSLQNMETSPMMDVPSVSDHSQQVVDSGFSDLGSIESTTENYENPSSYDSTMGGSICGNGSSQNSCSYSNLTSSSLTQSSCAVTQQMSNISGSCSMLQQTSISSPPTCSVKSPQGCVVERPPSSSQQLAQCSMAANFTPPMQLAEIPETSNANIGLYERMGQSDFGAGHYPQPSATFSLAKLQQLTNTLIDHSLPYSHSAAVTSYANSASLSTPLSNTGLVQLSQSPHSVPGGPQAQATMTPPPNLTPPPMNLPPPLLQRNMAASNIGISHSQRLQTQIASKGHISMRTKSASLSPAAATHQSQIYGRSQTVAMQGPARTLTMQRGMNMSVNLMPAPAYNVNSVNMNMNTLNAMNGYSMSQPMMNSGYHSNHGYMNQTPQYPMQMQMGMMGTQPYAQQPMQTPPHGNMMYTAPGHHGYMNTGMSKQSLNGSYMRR
Assay: Revised Acetyltransferase Biochemical Assay, KAT6B
Run Parameters: 8 nM KAT6B, 1 μM AcCoA, 100 nM histone H3.1, 90 min
Measured Attribute: IC50 (nM)

Compound: O=C(NCCc1ccccc1-n1nccn1)C1=Nc2ccc(I)cc2S(=O)(=O)N1
IC50 (nM): 39

1 = O=C(NCCc1ccccc1)C1=Nc2ccc(I)cc2S(=O)(=O)N1
2 = O=C(NCC(c1cccc(Cl)c1)c1ncco1)C1=Nc2ccc(I)cc2S(=O)(=O)N1 (stereo not drawn)
Min IC50? 1 | 2 Please identify the chosen entry by its label.
2

---

System: MOF-KAT8 (Homo sapiens)
Assay: Revised Acetyltransferase Biochemical Assay, KAT8
The reader will find reported IC50 values listed item by item below.

Compound: COCc1nnc(C(CNC(=O)C2=Nc3ccc(I)cc3S(=O)(=O)N2)c2ccccc2)o1 (centres unmarked)
Measured Attribute: IC50
Test Result: > 125 µM

Fill blank: measured IC50 of the compound O=C(NCCc1ccccc1)C1=Nc2ccc(I)cc2S(=O)(=O)N1 is ____.
> 125 µM

Item under review: O=C(NCC(c1ccccc1)n1cccn1)C1=Nc2ccccc2S(=O)(=O)N1 (centres unmarked) . Reported IC50?
> 125 µM

Would you mind telling me what IC50 value was observed for O=C(NCC(c1ncco1)c1ccccc1OC(F)F)C1=Nc2ccc(I)cc2S(=O)(=O)N1 (centres unmarked) ?
9.66 µM

Entry CNC(=O)c1ccc2c(c1)S(=O)(=O)NC(C(=O)NCC(c1ccccc1)c1ncco1)=N2 (centres unmarked) has what IC50?
> 125 µM

Value lookup for IC50; key = O=C(NCCc1ccccc1-n1ncc(CO)n1)C1=Nc2ccc(I)cc2S(=O)(=O)N1
68.4 µM

What does the data say about its IC50? Entry: O=C(NCCc1ccccc1)C1=Nc2ccc(Br)cc2S(=O)(=O)N1
> 125 µM

Can you share its IC50? I mean this compound: COc1cc(C)cc(C(CNC(=O)C2=Nc3ccc(Cl)cc3S(=O)(=O)N2)c2ncco2)c1 (centres unmarked)
16.3 µM

---

System: MOZ-KAT6A (Homo sapiens, UniProt Q92794, A567V)
Construct: encoding amino acid residues 507 to 778 (Uniprot Q92794-1) of human KAT6A; made in house; host or cells: E. coli BL21 DE3
Assay: Acetyltransferase biochemical assay (AlphaScreen), KAT6A
Run Parameters: Table 2 (MOZ-KAT6A); 10 μM Acetyl coenzyme A, histone H3.1, 5 nM enzyme
pIC50: −log10 of the molar value.
Measured Attribute: pIC50

Compound: O=C(NCCc1ccccc1OC(F)(F)F)C1=Nc2ccc(Br)cc2S(=O)(=O)N1
Measured Attribute: pIC50
Test Result: 6.06
//
Compound: O=C(NCC(c1ccccc1)c1ncco1)C1=Nc2ccc(I)cc2S(=O)(=O)N1 (stereo not shown) [Example 41]
Measured Attribute: pIC50
Test Result: 7.75
//
Compound: O=C(NCC(OC(=O)N1CCC1)c1ccccc1)C1=Nc2ccccc2S(=O)(=O)N1 (stereo not shown)
Measured Attribute: pIC50
Test Result: 5.32

a = Nc1ccc(CCNC(=O)C2=Nc3ccc(I)cc3S(=O)(=O)N2)cc1
b = O=C(NCC(c1ccccc1)c1ncco1)C1=Nc2ccccc2S(=O)(=O)N1 (single isomer, unassigned) [Example 136]
c = O=C(NCC(c1ccccc1)c1ncco1)C1=Nc2ccc(Br)cc2S(=O)(=O)N1 (stereo not shown) [Example 1]
d = O=C(NCC(c1ccccc1)n1cccn1)C1=Nc2ccc(Br)cc2S(=O)(=O)N1 (stereo not shown)
Put the items in order so that reported pIC50 rises from first to last. Rank them, then answer with their labels in that order.
a, b, d, c

---

System: MOF-KAT8 (Homo sapiens, UniProt Q9H7Z6)
Assay: Revised Acetyltransferase Biochemical Assay, KAT8
Each entry below carries its recorded IC50.

See these solved cases before continuing.
Molecule: O=C(NCCC1CCCCC1)C1=Nc2ccc(I)cc2S(=O)(=O)N1
IC50: > 125 µM
--
Molecule: O=C(NCC(CO)c1ccccc1)C1=Nc2ccc(Cl)cc2S(=O)(=O)N1 (stereo not drawn)
IC50: > 125 µM

For the molecule O=C(NCC(c1ccc(F)cc1)c1ncco1)C1=Nc2ccc(Cl)cc2S(=O)(=O)N1 (stereo not drawn) , what IC50 is on record?
> 125 µM
